- TGT: plasma purified human AT-III (antithrombin III)
- TEST DETAILS: AT-III/UFH inhibition K0.5, ratio to Catalyst Biosciences WT FIXa
METRIC NAME: K0.5-mut/K0.5-wt
Answers are plain numbers.

Consider FIXa-I251S/R318Y/R338E/E410N (protein) chain 1: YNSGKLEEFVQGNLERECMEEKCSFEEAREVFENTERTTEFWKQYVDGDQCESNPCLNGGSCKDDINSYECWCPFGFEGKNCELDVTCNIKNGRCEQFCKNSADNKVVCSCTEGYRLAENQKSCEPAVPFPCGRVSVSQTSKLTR chain 2: VVGGEDAKPGQFPWQVVLNGKVDAFCGGSIVNEKWIVTAAHCVETGVKITVVAGEHNIEETEHTEQKRNVSRIIPHHNYNAAINKYNHDIALLELDEPLVLNSYVTPICIADKEYTNIFLKFGSGYVSGWGRVFHKGYSALVLQYLRVPLVDRATCLESTKFTIYNNMFCAGFHEGGRDSCQGDSGGPHVTEVEGTSFLTGIISWGEECAMKGKYGIYTKVSRYVNWIKNKTKLT . Its measured K0.5-mut/K0.5-wt is 303
